- Test system: U251 CNS
- Protocol description: NCI tumour cell line growth inhibition, 48 h
Assign TGI to each entry below.

query: Form entry - test system: U251 CNS; read-out: TGI; molecule: CCc1ccc(NC(=O)COC(=O)c2cc([N+](=O)[O-])ccc2Sc2nnnn2C)cc1
result: 34.1 µM

query: Param readout = TGI; param system = U251 CNS; param query = COC(=O)C1=C(c2cc(OC)c(OC)c(OC)c2)OC(c2ccc(OC)c(OC)c2)C1 (stereo not given) ; response: value
result: > 100 µM

query: Identify the measured TGI of COc1cc([C@H]2OC[C@H]3[C@@H]2CO[C@@H]3c2cc(OC)c3c(c2)OCO3)cc(OC)c1OC for U251 CNS.
result: > 100 µM

query: Lab request: please report TGI under test system U251 CNS for CCOC(=O)c1c(N2CCCC2)ncn(Cc2ccccc2)c1=S
result: > 100 µM

query: State its TGI on U251 CNS: CN1CC[C@@H](c2c(O)cc(O)c3c(=O)cc(-c4ccccc4Cl)oc23)[C@@H]1CO
result: > 10 µM
